These entries and their values trace back to patent US9963448B2.

molecular target: UniProt:Q9UM07; test: hPAD4 RFMS (RapidFire mass spectrometry) PAD4 inhibition assay; assay type: biochemical; settings: hPAD4 enzyme, RFMS readout; read-out: hPAD4 RFMS IC50
pIC50: −log10 of the molar value.
observable: pIC50

* COc1cc(C(=O)N2C[C@@H]3COC[C@]3(CN)C2)cc2nc(-c3cc4cccnc4n3CC3CC3)n(C)c12 | < 5.00
* CCCn1c(-c2nc3cc(C(=O)N4CCC[C@@H](N)C4)cc(OC)c3n2C)cc2cccnc21 | > 6.00
* COc1cc(C(=O)N2CC3CCC2C(N)C3)cc2nc(-c3cc4cccnc4n3CC3CC3)n(C)c12 (stereo not shown) [Compound I-115] | > 6.00
* COc1cc(C(=O)N2C[C@H]3CC[C@@H]2[C@@H]3N)cc2nc(-c3cc4ccc(NCCC5CC5)cc4n3CC3CC3)n(C)c12 | > 6.00

###

target: UniProt:Q9UM07; experiment: hPAD4 RFMS (RapidFire mass spectrometry) PAD4 inhibition assay; type: biochemical; conditions: hPAD4 enzyme, RFMS readout; read-out: hPAD4 RFMS IC50
observable: IC50

* COc1cc(C(=O)N2CCC3(CNCCC3(F)F)C2)cc2nc(-c3cc4cccnc4n3CC3CC3)n(C)c12 (racemic) | > 10 µM
* COc1cc(C(=O)N2C[C@H]3CC[C@@H]2[C@@H]3N)cc2nc(-c3cc4cccnc4n3CC3CC3)n(CCS(C)(=O)=O)c12 | < 1 µM
* COc1cc(C(=O)N2C[C@H](N)CC[C@H]2CO)cc2nc(-c3cc4cccnc4n3CC3CC3)n(C)c12 (racemic) [Compound I-220] | > 10 µM
* Cn1c(-c2cc3cccnc3n2CC2CC2)nc2cc(C(=O)N3CCC4CCNC4C3)ccc21 (stereo not shown) | 1 to 5 µM
* COc1ccc2cc(-c3nc4cc(C(=O)N5CC[C@@H](OC)[C@@H](N)C5)ccc4n3C)n(CC3CC3)c2n1 | 1 to 5 µM
* COc1cc(C(=O)N2C[C@H]3CC[C@@H]2[C@@H]3N)cc2nc(-c3cc4ccc(C(C)(C)O)nc4n3CC3CC3)n(C)c12 | < 1 µM
* CCc1ccc2cc(-c3nc4cc(C(=O)N5CCC[C@@H](N)C5)cc(OC)c4n3CC)n(CC3CC3)c2n1 | < 1 µM

###

molecular target: hPAD4 (Homo sapiens); test: hPAD4 RFMS (RapidFire mass spectrometry) PAD4 inhibition assay; assay type: biochemical; details: hPAD4 enzyme, RFMS readout; pIC50=−log(IC50); read-out: hPAD4 RFMS pIC50 (converted);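 as to hPAD4 RFMS pIC50: grade E means pIC50 at most 4 and F means pIC50 4.0 to 5.0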
Sequence (Q9UM07 whole entry): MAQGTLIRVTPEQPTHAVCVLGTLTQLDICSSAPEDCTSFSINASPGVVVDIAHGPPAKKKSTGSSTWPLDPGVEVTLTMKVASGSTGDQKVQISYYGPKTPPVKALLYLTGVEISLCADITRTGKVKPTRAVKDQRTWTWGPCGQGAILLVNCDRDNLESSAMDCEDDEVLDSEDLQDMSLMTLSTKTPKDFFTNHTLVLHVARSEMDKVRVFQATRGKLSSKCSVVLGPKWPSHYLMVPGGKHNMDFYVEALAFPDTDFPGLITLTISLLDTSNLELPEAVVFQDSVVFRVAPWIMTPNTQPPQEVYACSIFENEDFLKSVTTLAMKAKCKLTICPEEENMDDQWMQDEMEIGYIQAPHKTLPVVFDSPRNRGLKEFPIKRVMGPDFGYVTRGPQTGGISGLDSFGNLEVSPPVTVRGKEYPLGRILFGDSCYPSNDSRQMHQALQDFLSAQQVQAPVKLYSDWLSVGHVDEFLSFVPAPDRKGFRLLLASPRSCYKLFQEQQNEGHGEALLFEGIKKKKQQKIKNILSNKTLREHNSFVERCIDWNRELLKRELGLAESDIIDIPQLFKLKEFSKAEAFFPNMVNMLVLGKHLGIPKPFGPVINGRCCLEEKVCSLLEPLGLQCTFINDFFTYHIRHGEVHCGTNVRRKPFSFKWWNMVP
Reported IC50 values for the following molecules.
observable: IC50

* COc1cc(C(=O)N2C[C@@H](N)CC[C@@H]2CO)cc2nc(-c3cc4cccnc4n3CC3CC3)n(C)c12 (single isomer, unassigned) | 10 to 100 µM
* [2H]C([2H])([2H])OC1(C)CC(Cn2c(-c3cc4cccnc4n3CC3CC3)nc3cc(C(=O)N4C[C@H]5CC[C@@H]4[C@@H]5N)cc(OC)c32)C1 (stereo partly drawn) | < 1 µM
* COc1cc(C(=O)N2C[C@H]3CC[C@@H]2[C@@H]3N)cc2nc(-c3cc4cccnc4n3CCF)n(C)c12 | 1 to 10 µM
* CCc1ccc2cc(-c3nc4cc(C(=O)N5CCC[C@@H](N)C5)cc(OC)c4n3CC)n(CC3CC3)c2n1 | < 1 µM
* COc1cc(C(=O)N2CC[C@@H]3OCCN[C@@H]3C2)cc2nc(-c3cc4cccnc4n3CC3CC3)n(C)c12 | 10 to 100 µM
* COc1cc(C(=O)N2C[C@H](N)CC[C@@H]2C)cc2nc(-c3cc4cccnc4n3CC3CC3)n(C)c12 | < 1 µM

###

Molecular target: mPAD4 (Mus musculus, UniProt Q9Z183)
Sequence (Q9Z183 whole entry): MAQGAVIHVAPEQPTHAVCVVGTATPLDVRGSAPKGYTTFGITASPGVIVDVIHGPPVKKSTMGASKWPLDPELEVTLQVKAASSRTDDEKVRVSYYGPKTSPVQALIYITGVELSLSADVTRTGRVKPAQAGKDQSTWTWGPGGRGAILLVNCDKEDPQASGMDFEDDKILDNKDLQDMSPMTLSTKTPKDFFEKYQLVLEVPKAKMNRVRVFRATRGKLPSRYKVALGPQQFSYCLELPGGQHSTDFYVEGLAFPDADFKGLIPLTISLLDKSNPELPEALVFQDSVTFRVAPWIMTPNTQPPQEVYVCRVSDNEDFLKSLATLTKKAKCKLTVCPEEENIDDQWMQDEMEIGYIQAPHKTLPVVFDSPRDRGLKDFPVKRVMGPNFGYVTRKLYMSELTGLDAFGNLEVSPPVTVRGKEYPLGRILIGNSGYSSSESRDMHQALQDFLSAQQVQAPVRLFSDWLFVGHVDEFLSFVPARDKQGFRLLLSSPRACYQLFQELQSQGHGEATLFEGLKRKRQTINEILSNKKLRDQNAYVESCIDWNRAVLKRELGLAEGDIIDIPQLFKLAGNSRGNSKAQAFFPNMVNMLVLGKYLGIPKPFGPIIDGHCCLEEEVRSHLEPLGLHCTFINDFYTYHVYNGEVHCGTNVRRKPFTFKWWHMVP
Assay: mPAD4 RFMS PAD4 inhibition assay;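 as to mPAD4 RFMS pIC50: grade E means pIC50 at most 4 and F means pIC50 4.0 to 5.0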
Assay type: biochemical
Settings: mPAD4, RFMS readout; pIC50=−log(IC50); read-out: mPAD4 RFMS pIC50 (converted)
Method: Compounds of the present invention were assayed as inhibitors of PAD4 using the assay protocol described below. Compound stock solutions were stored at RT. […] Final assay conditions were as follows: Total incubation time: 65 mins at 37° C. Stop solution: 40 μl 5% TCA in ACN The compound numbers correspond to the compound numbers in Table 1. […] The term pIC50=−log(IC50). […] “NA” stands for “not assayed.”
observable: IC50

* CCn1c(-c2nc3cc(C(=O)N4CCC[C@@H](N)C4)c(F)cc3n2C)cc2cccnc21 | 1 to 10 µM
* COc1cc(C(=O)N2CCC[C@@H](N)C2)cc2nc(-c3cc4cccnc4n3[C@H](C)C3CC3)n(C)c12 | 1 to 10 µM
* COc1cc(C(=O)N2C[C@H]3CC4OC(=O)N[C@H]3[C@@H]42)cc2nc(-c3cc4cccnc4n3CC3CC3)n(C)c12 | 10 to 100 µM

###

Reported IC50 values for the following molecules.
Target: mPAD4 (Mus musculus, UniProt Q9Z183)
Assay: mPAD4 RFMS PAD4 inhibition assay
Assay type: biochemical
Conditions: mPAD4, RFMS readout; read-out: mPAD4 RFMS IC50
Protocol: Compounds of the present invention were assayed as inhibitors of PAD4 using the assay protocol described below. Compound stock solutions were stored at RT. […] Final assay conditions were as follows: Total incubation time: 65 mins at 37° C. Stop solution: 40 μl 5% TCA in ACN The compound numbers correspond to the compound numbers in Table 1. […] The term pIC50=−log(IC50). […] “NA” stands for “not assayed.”
observable: IC50

• COc1ccc2cc(-c3nc4cc(C(=O)N5CCC[C@@H](N)C5)cc(OC)c4n3CC(F)F)n(CC3CC3)c2n1 = < 1000 nM
• COc1cc(C(=O)N2CC[C@@H](F)[C@@H](N)C2)cc2nc(-c3cc4cccnc4n3CC3CC3)n(C)c12 = < 1000 nM
• COc1cc(C(=O)N2C[C@@H]3CC[C@H]2[C@@H](N)C3)cc2nc(-c3cc4cccnc4n3CC3CC3)n(C)c12 = > 10000 nM
• COCCn1c(-c2nc3cc(C(=O)N4C[C@H]5CC[C@@H]4[C@@H]5N)ccc3n2C)cc2ccc(OC)nc21 = 5000 to 10000 nM
• COc1cc(C(=O)N2C[C@H](N)C[C@@H](F)C2)cc2nc(-c3cc4cccnc4n3CC3CC3)n(C)c12 = < 1000 nM
• COCCn1c(-c2cc3cccnc3n2CC2CC2)nc2cc(C(=O)N3CCC[C@@H](N)C3)cc(OC)c21 = < 1000 nM
• COc1ccc2cc(-c3nc4cc(C(=O)N5CC[C@H](OC)[C@H](N)C5)ccc4n3C)n(CC3CC3)c2n1 = 1000 to 5000 nM
• COc1cc(C(=O)N2C[C@H]3CC[C@@H]2[C@@H]3N)cc2nc(-c3cc4cccnc4n3CC3CC3)n(CCSC)c12 = < 1000 nM
• COc1cc(C(=O)N2C[C@H]3CC[C@@H]2[C@@H]3N)cc2nc(-c3cc4ccc(C(C)(C)O)nc4n3CC3CC3)n(C)c12 = < 1000 nM
• COc1cc(C(=O)N2CC(O)(C3(N)CCCC3)C2)cc2nc(-c3cc4cccnc4n3CC3CC3)n(C)c12 = > 10000 nM

###

molecular target: hPAD4 (Homo sapiens); experiment: hPAD4 RFMS (RapidFire mass spectrometry) PAD4 inhibition assay; format: biochemical; conditions: hPAD4 enzyme, RFMS readout; pIC50=−log(IC50); read-out: hPAD4 RFMS pIC50 (converted);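 as to hPAD4 RFMS pIC50: grade E means pIC50 at most 4 and F means pIC50 4.0 to 5.0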
Reported IC50 values for the following compounds.
observable: IC50

- COc1cc(C(=O)N2C[C@H](N)C[C@@H](F)C2)cc2nc(-c3cc4cccnc4n3CC3CC3)n(C)c12 [Compound I-35]: < 1 µM
- CO[C@@H]1CCN(C(=O)c2ccc3c(c2)nc(-c2cc4cccnc4n2CC2CC2)n3C)C[C@@H]1N (single isomer, unassigned) [Compound I-64]: 1 to 10 µM
- COc1cc(C(=O)N2CCC(OC(F)F)C(N)C2)cc2nc(-c3cc4cccnc4n3CC3CC3)n(C)c12 (racemic) [Compound I-86]: < 1 µM
- Cn1c(-c2cc3cccnc3n2CC2CC2)nc2cc(C(=O)N3C[C@H]4CC[C@@H]3[C@@H]4N)cc(F)c21 [Compound I-191]: < 1 µM
- Cn1c(-c2cc3cccnc3n2CC2CC2)nc2cc(C(=O)N3CC4CC3CN4)ccc21 (stereo not drawn) [Compound I-37]: > 100 µM
- Cn1c(-c2cc3cccnc3n2CC2CC2)nc2cc(C(=O)N3CCCC4(CCN4)C3)ccc21 (stereo not drawn) [Compound I-42]: > 100 µM
- COc1cc(C(=O)N2C[C@@H]3[C@@H](N)[C@@H]3C2)cc2nc(-c3cc4cccnc4n3CC3CC3)n(C)c12 [Compound I-76]: 10 to 100 µM
- Cn1c(-c2cc3cccnc3n2CC2CC2)nc2cc(C(=O)N3CCC[C@@H]4CNC[C@@H]43)ccc21 [Compound I-43]: > 100 µM
- COc1cc(C(=O)N2CC3COCC3(CN)C2)cc2nc(-c3cc4cccnc4n3CC3CC3)n(C)c12 (racemic) [Compound I-96]: 10 to 100 µM
- COc1cc(C(=O)N2CC(N)CC(C#N)C2)cc2nc(-c3cc4cccnc4n3CC3CC3)n(C)c12 (racemic) [Compound I-82]: 10 to 100 µM
- Cn1c(-c2cc3cccnc3n2CC2CC2)nc2cc(C(=O)N3C[C@H]4CC[C@@H]3[C@@H]4N)c(F)cc21 [Compound I-194]: 1 to 10 µM
- COc1cc(C(=O)N2C[C@H]3CCC2[C@H]3N)cc2nc(-c3cc4ccc(/C=C/c5ccc(C(F)(F)F)cc5)cc4n3CC3CC3)n(C)c12 [Compound I-367]: < 1 µM
